Molecular target: T1, glucose-dependent insulinotropic peptide (gastric inhibitory polypeptide) receptor (GIPR), primary cAMP assay (human, UniProt P48546 22-466)
T1 sequence (looked up): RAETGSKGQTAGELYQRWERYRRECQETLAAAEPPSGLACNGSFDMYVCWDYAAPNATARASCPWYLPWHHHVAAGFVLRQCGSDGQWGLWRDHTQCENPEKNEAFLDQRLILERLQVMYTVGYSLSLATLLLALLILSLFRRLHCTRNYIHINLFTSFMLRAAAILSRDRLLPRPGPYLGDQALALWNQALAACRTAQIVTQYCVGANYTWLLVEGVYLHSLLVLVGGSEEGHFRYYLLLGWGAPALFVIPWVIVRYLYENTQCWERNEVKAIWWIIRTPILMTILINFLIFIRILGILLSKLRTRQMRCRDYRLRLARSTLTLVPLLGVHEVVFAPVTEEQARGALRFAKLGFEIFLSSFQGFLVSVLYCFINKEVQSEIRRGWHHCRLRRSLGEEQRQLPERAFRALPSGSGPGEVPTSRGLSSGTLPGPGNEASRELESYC
Test: cell-based or functional assay
Starred links: 1 amine or outer side, 2 acyl side, 3 side chain; linkers in the order of their positions; H or OH if unused. Non-standard residues stand in square brackets, D forms with d. Groups on a side chain read outwards from the residue. Primed or numbered codes have the meaning given here. No end group written: not given here. *: point of attachment. γGlu = O=C(O)[C@H](CCC(=O)[*:2])N[*:1]; Palmitoyl = CCCCCCCCCCCCCCCC(=O)*; αMeF = C[C@](N)(Cc1ccccc1)C(=O)O; αMeK = C[C@](N)(CCCCN)C(=O)O; Lauroyl = CCCCCCCCCCCC(=O)*; αMeS = C[C@](N)(CO)C(=O)O; PEG2′ = not defined here; Aib = CC(C)(N)C(=O)O
ENDPOINT NAME: Primary assay EC50 (cAMP), n2 (nM)

[
  {
    "BINDER": "H[Aib]EGS[αMeF]TSDK([PEG2′-PEG2′-γGlu-Palmitoyl])SSYLEGEAA[αMeK]EFIAWK([PEG2′-PEG2′-γGlu-Palmitoyl])VEGG-NH2 [SEQ ID NO: 261]",
    "Primary assay EC50 (cAMP), n2 [nM]": 23
  },
  {
    "BINDER": "H[Aib]EGTFTSDVSK([PEG2′-PEG2′-γGlu-Lauroyl])FLEGEAAEEFIK([PEG2′-PEG2′-γGlu-Lauroyl])WVVEGG-NH2 [SEQ ID NO: 237]",
    "Primary assay EC50 (cAMP), n2 [nM]": 22.3
  },
  {
    "BINDER": "H[Aib]EGS[αMeF]TSDV[αMeS]SYK([PEG2′-PEG2′-γGlu-Lauroyl])EGEAA[αMeK]EFIAWK([PEG2′-PEG2′-γGlu-Lauroyl])VEGG-NH2 [SEQ ID NO: 270]",
    "Primary assay EC50 (cAMP), n2 [nM]": 22.3
  },
  {
    "BINDER": "H[Aib]EGS[αMeF]TSDK([PEG2′-PEG2′-γGlu-Palmitoyl])SSYLEGEAA[αMeK]EFIAK([PEG2′-PEG2′-γGlu-Palmitoyl])VVEGG-NH2 [SEQ ID NO: 260]",
    "Primary assay EC50 (cAMP), n2 [nM]": 21.9
  }
]
